Target Or Test System: Nrf2-Keap1 (Homo sapiens, UniProt Q14145)
Sequence (Q14145 whole entry): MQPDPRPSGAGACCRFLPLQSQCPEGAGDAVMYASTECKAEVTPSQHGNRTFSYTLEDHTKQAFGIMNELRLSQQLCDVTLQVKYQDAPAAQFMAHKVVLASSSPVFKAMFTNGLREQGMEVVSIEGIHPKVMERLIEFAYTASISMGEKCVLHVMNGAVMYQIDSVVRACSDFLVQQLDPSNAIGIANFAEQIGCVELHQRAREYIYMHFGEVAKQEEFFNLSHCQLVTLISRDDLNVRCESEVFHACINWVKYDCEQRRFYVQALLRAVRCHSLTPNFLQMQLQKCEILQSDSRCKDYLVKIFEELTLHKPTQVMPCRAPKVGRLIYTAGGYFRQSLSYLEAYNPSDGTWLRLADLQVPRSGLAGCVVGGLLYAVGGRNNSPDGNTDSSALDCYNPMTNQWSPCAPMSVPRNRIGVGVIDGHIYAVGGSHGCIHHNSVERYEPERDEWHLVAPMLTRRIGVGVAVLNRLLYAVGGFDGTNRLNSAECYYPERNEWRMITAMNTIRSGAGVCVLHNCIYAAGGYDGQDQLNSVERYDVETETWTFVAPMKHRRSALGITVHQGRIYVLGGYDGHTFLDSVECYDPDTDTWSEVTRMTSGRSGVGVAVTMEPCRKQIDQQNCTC
Procedure Details: DiscoveRx PathHunter Nrf2-Keap1 nuclear translocation functional assay (agonist format)
Assay type: cell-based
Test Conditions: 6 h, single concentration of 10 μM, in duplicate; agonist mode; normalized to control ligand (CDDO methyl ester) and vehicle
Quantity: activation at 10 µM

Query :: Entry CC1(C)CCC[C@@]2(C)[C@H]1CCC1(CC1)[C@@H]2CC/C=C1/C(=O)OC[C@H]1NS(C)(=O)=O [Example 37] has what activation at 10 µM?
Result :: 30 to 50%

Query :: How about CC(=O)N[C@@H]1COC(=O)/C1=C/C[C@H]1C2(CC[C@H]3C(C)(C)CCC[C@@]31C)CC2 [Example 26] ?
Result :: 30 to 50%

Query :: How about C=C1CC[C@@H]2[C@]3(C)CO[S@](=O)O[C@@H]3CC[C@@]2(C)[C@@H]1C/C=C1/C(=O)OC[C@@H]1O [Example 10] ?
Result :: 51 to 100%

Query :: How about CC1(C)CCC[C@@]2(C)[C@H]1CCC1(CC1)[C@@H]2CC/C=C1/C(=O)OCC1O (stereo partly shown) [Example 32] ?
Result :: 30 to 50%

* * *

Target Or Test System: Nrf2-Keap1 (Homo sapiens)
Procedure Details: DiscoveRx PathHunter Nrf2-Keap1 nuclear translocation functional assay (agonist format)
Assay type: cell-based
Test Conditions: 6 h, single concentration of 10 μM, in duplicate; agonist mode; normalized to control ligand (CDDO methyl ester) and vehicle
Answer each item with its documented activation at 10 µM.

Query :: Entry CC1=CC[C@@H]2[C@@H](C)[C@H](O)CC[C@@]2(C)[C@@H]1C/C=C1/C(=O)OC[C@H]1O has what activation at 10 µM?
Result :: > 100%

Query :: How about C=C1CC[C@H]2[C@@](C)(CC[C@@](C)(O)[C@@]2(C)CO)[C@@H]1C/C=C1/C(=O)OC[C@H]1O ?
Result :: 51 to 100%

Query :: How about C=C1CC[C@@H]2[C@]3(C)COS(=O)O[C@@H]3CC[C@@]2(C)[C@@H]1C/C=C1/C(=O)OC[C@@H]1NC=O (stereo partly drawn) ?
Result :: 51 to 100%

Query :: How about C=C1CC[C@@H]2[C@@H](C)[C@H](O)CC[C@@]2(C)[C@@H]1C/C=C1/C(=O)OC[C@H]1O ?
Result :: > 100%

Query :: How about C=C1CC[C@@H]2[C@@H](C)[C@@H](O)CC[C@@]2(C)[C@@H]1C/C=C1/C(=O)OC[C@H]1O ?
Result :: 51 to 100%

Query :: How about C=C1CC[C@@H]2[C@]3(C)CO[S@](=O)O[C@@H]3CC[C@@]2(C)[C@@H]1C/C=C1/C(=O)OC[C@H]1O ?
Result :: > 100%

Query :: How about CC(=O)N[C@@H]1COC(=O)/C1=C\C[C@H]1C2(CC[C@H]3C(C)(C)CCC[C@@]31C)CC2 ?
Result :: 30 to 50%

Query :: How about C=C1CC[C@H]2[C@@](C)(CC[C@@]3(C)ON=C[C@@]23C)[C@@H]1C/C=C1/C(=O)OC[C@H]1O ?
Result :: > 100%

Query :: How about C=C1CC[C@H]2[C@@](C)(CC[C@@]3(C)O[S@@](=O)OC[C@@]23C)[C@@H]1C/C=C1/C(=O)OC[C@H]1O ?
Result :: > 100%

Query :: How about CC(=O)N[C@@H]1COC(=O)/C1=C\CC[C@H]1C2(CC[C@H]3C(C)(C)CCC[C@@]31C)CC2 ?
Result :: 51 to 100%

Query :: How about C=C1CC[C@@H]2[C@]3(C)COS(=O)O[C@@H]3CC[C@@]2(C)[C@@H]1C/C=C1\C(=O)OC[C@@H]1NC=O (stereo partly drawn) ?
Result :: 51 to 100%

Query :: How about C=C1CC[C@@H]2[C@@H](C)[C@@](C)(O)CC[C@@]2(C)[C@@H]1C/C=C1/C(=O)OC[C@H]1O ?
Result :: > 100%

Query :: How about C=C1CC[C@@H]2[C@]3(C)COS(=O)O[C@@H]3CC[C@@]2(C)[C@@H]1C/C=C1/C(=O)OCC1NC=O (stereo partly drawn) ?
Result :: 51 to 100%

Query :: How about CO[C@@H]1CC[C@@]2(C)[C@H](C/C=C3/C(=O)OC[C@H]3O)C(C)=CC[C@@H]2[C@H]1C ?
Result :: 51 to 100%

Query :: How about C=C1CC[C@@H]2[C@@H](C)[C@H](OC)CC[C@@]2(C)[C@@H]1C/C=C1/C(=O)OC[C@H]1O ?
Result :: > 100%

Query :: How about C=C1CC[C@H]2[C@@](C)(CC[C@@]3(C)OS(=O)OC[C@@]23C)[C@@H]1C/C=C1/C(=O)OCC1NC=O (stereo partly drawn) ?
Result :: 51 to 100%

Query :: How about CC1(C)CCC[C@@]2(C)[C@H]1CCC1(CC1)[C@@H]2CC/C=C1\C(=O)OC[C@H]1NC=O ?
Result :: 30 to 50%

Query :: How about CC1(C)CCC[C@@]2(C)[C@H]1CCC1(CC1)[C@@H]2C/C=C1\C(=O)OCC1O (stereo partly drawn) ?
Result :: 51 to 100%

Query :: How about CO[C@@H]1CC[C@@]2(C)C(C/C=C3/C(=O)OC[C@H]3O)=C(C)CC[C@@H]2[C@H]1C ?
Result :: 30 to 50%

Query :: How about CC1(C)CCC[C@@]2(C)[C@H]1CCC1(CC1)[C@@H]2C/C=C1/C(=O)OC[C@H]1NC=O ?
Result :: 51 to 100%

Query :: How about CC1(C)CCC[C@@]2(C)[C@H]1CCC1(CC1)[C@@H]2CC/C=C1\C(=O)OC[C@H]1NS(C)(=O)=O ?
Result :: 30 to 50%

Query :: How about CC1(C)CCC[C@@]2(C)[C@H]1CCC1(CC1)[C@@H]2CC/C=C1/C(=O)OC[C@H]1NC=O ?
Result :: 30 to 50%

Query :: How about C=C1CC[C@@H]2[C@]3(C)COS(=O)O[C@@H]3CC[C@@]2(C)[C@@H]1C/C=C1\C(=O)OC[C@H]1NC=O (stereo partly drawn) ?
Result :: 51 to 100%

Query :: How about C=C1CC[C@@H]2[C@@H](C)[C@H](NC)CC[C@@]2(C)[C@@H]1C/C=C1/C(=O)OC[C@H]1O ?
Result :: 51 to 100%

Query :: How about C=C1CC[C@@H]2[C@@H](C)[C@](C)(O)CC[C@@]2(C)[C@@H]1C/C=C1/C(=O)OC[C@H]1O ?
Result :: > 100%

Query :: How about C=C1CC[C@@H]2[C@]3(C)COS(=O)O[C@@H]3CC[C@@]2(C)[C@@H]1C/C=C1/C(=O)OC[C@H]1NC=O (single isomer, unassigned) ?
Result :: > 100%

Query :: How about CC(=O)N[C@@H]1COC(=O)/C1=C/CC[C@H]1C2(CC[C@H]3C(C)(C)CCC[C@@]31C)CC2 ?
Result :: 51 to 100%

* * *

Target Or Test System: Nrf2-Keap1 (Homo sapiens)
Procedure Details: DiscoveRx PathHunter Nrf2-Keap1 nuclear translocation functional assay (agonist format)
Test Conditions: 10 concentrations, 3-fold serial dilutions, 30 μM top concentration, in duplicate; agonist mode; normalized to CDDO methyl ester and vehicle
Quantity: EC50

Query :: Entry C=C1CC[C@@H]2[C@@H](C)[C@](O)(C(F)(F)F)CC[C@@]2(C)[C@@H]1C/C=C1/C(=O)OC[C@H]1O [Example 42A] has what EC50?
Result :: < 500 nM

Query :: How about C=C1CC[C@@H]2[C@@H](C)[C@@](O)(C(F)(F)F)CC[C@@]2(C)[C@@H]1C/C=C1/C(=O)OCC1NC=O (single isomer, unassigned) [Example 43B] ?
Result :: < 500 nM

Query :: How about CC(=O)N[C@@H]1COC(=O)/C1=C/CC[C@H]1C2(CC[C@H]3C(C)(C)CCC[C@@]31C)CC2 [Example 35] ?
Result :: > 2000 nM

Query :: How about C=C1CC[C@@H]2[C@]3(C)COS(=O)O[C@@H]3CC[C@@]2(C)[C@@H]1C/C=C1/C(=O)OCC1NC(=O)CO (single isomer, unassigned) [Example 41B] ?
Result :: 500 to 2000 nM

Query :: How about C=C1CC[C@@H]2[C@]3(C)COCO[C@@H]3CC[C@@]2(C)[C@@H]1C/C=C1/C(=O)OCC1NC(=O)COC (single isomer, unassigned) [Example 46B] ?
Result :: > 2000 nM

Query :: How about C=C1CC[C@@H]2[C@]3(C)COS(=O)O[C@@H]3CC[C@@]2(C)[C@@H]1C/C=C1/C(=O)OC[C@@H]1NC=O (stereo partly drawn) [Example 21] ?
Result :: > 2000 nM

Query :: How about C=C1CC[C@@H]2[C@@H](C)[C@@](C)(O)CC[C@@]2(C)[C@@H]1C/C=C1/C(=O)OC[C@H]1O [Example 5] ?
Result :: < 500 nM

Query :: How about C=C1CC[C@@H]2[C@]3(C)COS(=O)O[C@@H]3CC[C@@]2(C)[C@@H]1C/C=C1/C(=O)OC[C@H]1NC=O (single isomer, unassigned) [Example 20] ?
Result :: 500 to 2000 nM

Query :: How about C=C1CC[C@@H]2[C@@H](C)[C@@H](O)CC[C@@]2(C)[C@@H]1C/C=C1/C(=O)OC[C@H]1O [Example 1] ?
Result :: 500 to 2000 nM

Query :: How about C=C1CC[C@@H]2[C@@H](C)[C@](C)(O)CC[C@@]2(C)[C@@H]1C/C=C1/C(=O)OC[C@H]1O [Example 4] ?
Result :: < 500 nM

Query :: How about C=C1CC[C@@H]2[C@@H](C)[C@@](O)(C(F)(F)F)CC[C@@]2(C)[C@@H]1C/C=C1/C(=O)OC[C@H]1O [Example 42B] ?
Result :: < 500 nM

Query :: How about C=C1CC[C@@H]2[C@@H](C)[C@](O)(C(F)(F)F)CC[C@@]2(C)[C@@H]1C/C=C1/C(=O)OCC1NC=O (single isomer, unassigned) [Example 44B] ?
Result :: 500 to 2000 nM
